So I've got a bunch of compounds here, and I need their pIC50 values.
TESTED_SYSTEM: CCR3 (Homo sapiens)
Construct: Eosinophils separated from peripheral blood of healthy subject; endogenous in cells
Sequence (P51677 1-355): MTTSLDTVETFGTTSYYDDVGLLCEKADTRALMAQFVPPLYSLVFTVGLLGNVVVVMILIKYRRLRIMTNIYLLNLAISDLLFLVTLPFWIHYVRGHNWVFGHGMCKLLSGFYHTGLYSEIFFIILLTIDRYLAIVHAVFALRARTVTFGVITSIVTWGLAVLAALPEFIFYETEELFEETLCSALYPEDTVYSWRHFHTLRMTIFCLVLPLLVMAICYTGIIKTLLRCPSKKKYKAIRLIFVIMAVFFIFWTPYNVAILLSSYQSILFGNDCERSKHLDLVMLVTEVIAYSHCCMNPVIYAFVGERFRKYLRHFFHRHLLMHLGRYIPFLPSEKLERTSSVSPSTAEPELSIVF
EXPERIMENT: Effect on intracellular calcium concentration in eosinophils upon CCL11 stimulation
MEASUREMENT_SETUP: peripheral blood eosinophils of healthy subject, agonist CCL11 1.0 nmol/L, compound 3 min before stimulation, Fura-2 AM; read-out: IC50 (50% suppression of the increase in the intracellular calcium concentration)
Text: Effect on Intracellular Calcium Concentration The effect of the compound of the present invention on intracellular calcium mobilization in peripheral blood eosinophils of healthy subject upon CCL11 stimulation was examined by the following method. […]
Structures can show the parent of a compound that is named as a salt.
Entry type: numeric. Quantity: pIC50, the -log10 of concentration in molar units.

Exercise: Fill blank: measured pIC50 of the compound Nc1nnc(SCC(=O)NC[C@H]2CN(Cc3cccc(Cl)c3)CCO2)s1 [Example 123] is ____.
Solution: 8.59

Exercise: Which pIC50 is reported for this compound? CC(=O)c1cc2cc(SCC(=O)NC[C@H]3CN(Cc4ccc(Cl)c(Cl)c4)CCO3)ccc2oc1=O [Example 174]
Solution: 7.79

Exercise: Query (compound): O=C(CSc1ccc(=O)[nH]n1)NC[C@H]1CN(Cc2ccc(F)c(F)c2)CCO1 [Example 198] ; field requested: pIC50
Solution: 8.41

Exercise: Fill blank: measured pIC50 of the compound O=C(CSc1nc(-c2nnn[nH]2)cs1)NC[C@H]1CN(Cc2ccc(Cl)c(Cl)c2)CCO1 [Example 59] is ____.
Solution: 8.68

Exercise: Fill in the blank: the reported pIC50 of NC(=O)CNC(=O)c1csc(SCC(=O)NC[C@H]2CN(Cc3ccc(Cl)c(Cl)c3)CCO2)n1 [Example 17] is ____.
Solution: 8.60

Exercise: What value of measured pIC50 is listed for O=C(CSc1nc2cccnc2s1)NC[C@H]1CN(Cc2ccc(Cl)c(Cl)c2)CCO1 [Example 64] ?
Solution: 9.52

Exercise: For O=C(CCCS(=O)(=O)C1CCCC1)NC[C@H]1CN(Cc2ccc(F)c(Cl)c2)CCO1 [Example 232] , what is its reported pIC50?
Solution: 7.41

Exercise: Quick one: pIC50 for NC(=O)c1csc(SCC(=O)NC[C@H]2CN(Cc3ccc(Cl)c(Cl)c3)CCO2)n1 [Example 15] ?
Solution: 8.80

Exercise: Look up pIC50: Nc1nnc(SCC(=O)NC[C@H]2CN(Cc3ccc(F)c(F)c3)CCO2)s1 [Example 125]
Solution: 8.44

Exercise: Would you kindly share the measured pIC50 for NC(=O)Cc1csc(SCC(=O)NC[C@H]2CN(Cc3ccc(F)cc3)CCO2)n1 [Example 107] ?
Solution: 8.60

Exercise: Given the entry Cc1sc(SCC(=O)NC[C@H]2CN(Cc3ccc(Cl)c(Cl)c3)CCO2)nc1C(N)=O [Example 110] , report its measured pIC50.
Solution: 8.82

Exercise: Endpoint output: pIC50 of O=C(O)Cc1csc(SCC(=O)NC[C@H]2CN(Cc3ccc(Cl)c(Cl)c3)CCO2)n1 [Example 2] . Value?
Solution: 8.74

Exercise: Given the entry NC(=O)CNC(=O)c1csc(SCC(=O)NC[C@H]2CN(Cc3ccc(F)c(F)c3)CCO2)n1 [Example 115] , report its measured pIC50.
Solution: 8.59

Exercise: Any idea what its pIC50 is? The compound is NC(=O)c1cncc(SCC(=O)NC[C@H]2CN(Cc3ccc(Cl)c(Cl)c3)CCO2)c1 [Example 207]
Solution: 8.62

Exercise: I have this compound here, NC(=O)c1csc(SCC(=O)NC[C@H]2CN(Cc3ccc(F)c(Cl)c3)CCO2)n1 [Example 112] , and I need its recorded pIC50.
Solution: 9.05

Exercise: pIC50 for NC(=O)Cc1csc(SCC(=O)NC[C@H]2CN(Cc3ccc(F)c(F)c3)CCO2)n1 [Example 79] ?
Solution: 9.05

Exercise: # pIC50 lookup, item O=C(O)CCNC(=O)c1csc(SCC(=O)NC[C@H]2CN(Cc3ccc(Cl)c(Cl)c3)CCO2)n1 [Example 46, hydrochloride]
Solution: 8.51

Exercise: May I ask what pIC50 has been recorded for O=C(CSc1ccc(C(=O)O)cc1)NC[C@H]1CN(Cc2ccc(Cl)c(Cl)c2)CCO1 [Example 37] ?
Solution: 8.31

Exercise: Fill in: pIC50 of O=C(CSc1ncccn1)NC[C@H]1CN(Cc2ccc(Cl)c(Cl)c2)CCO1 [Example 146] is ___
Solution: 8.60

Exercise: Which pIC50 reading was recorded for the compound CC(=O)Nc1nnc(SCC(=O)NC[C@H]2CN(Cc3ccc(Cl)c(Cl)c3)CCO2)s1 [Example 53] ?
Solution: 8.28

Exercise: # lookup: pIC50 of NC(=O)c1csc(SCCCC(=O)NC[C@H]2CN(Cc3ccc(Cl)c(Cl)c3)CCO2)n1 [Example 55, hydrochloride]
Solution: 8.96

Exercise: Fill blank: measured pIC50 of the compound NC(=O)CNC(=O)c1ccc(SCC(=O)NC[C@H]2CN(Cc3ccc(Cl)c(Cl)c3)CCO2)cc1 [Example 40] is ____.
Solution: 8.70

Exercise: Param item = NC(=O)/C=C/c1csc(SCC(=O)NC[C@H]2CN(Cc3ccc(Cl)c(Cl)c3)CCO2)n1 [Example 71] ; retrieve measured pIC50.
Solution: 9.30

----------
Please respond with reported minimal effective dose for every item in the list.
Tested on: mouse ovalbumin (OVA) induced allergic and biphasic ear edema
EXPERIMENT: Antigen (OVA) induced allergic and biphasic ear edema model
Assay type: in vivo
MEASUREMENT_SETUP: male BALB/c mice, oral once a day from 2 days before induction, 3 or 10 mg/kg tested, ear thickness 1 hr after OVA, read-out: Dose that showed a significant suppressive action vs vehicle, Immediate phase
Where a name gives a salt, the structure may show the parent alone.
Response body: numeric value in mg/kg, unit text excluded.

Exercise: Data request, read-out minimal effective dose, for O=C(O)CCNC(=O)c1csc(SCC(=O)NC[C@H]2CN(Cc3ccc(Cl)c(Cl)c3)CCO2)n1 [Example 46, hydrochloride]
Solution: 10

Exercise: So what does the record say about minimal effective dose for O=C(CSc1ncccn1)NC[C@H]1CN(Cc2ccc(Cl)c(Cl)c2)CCO1 [Example 146] ?
Solution: 3

Exercise: Look up minimal effective dose: O=C(O)Cc1csc(SCC(=O)NC[C@H]2CN(Cc3ccc(Cl)c(Cl)c3)CCO2)n1 [Example 2]
Solution: 3

Exercise: Any idea what minimal effective dose was measured for O=C(CSc1ccc(C(=O)O)cc1)NC[C@H]1CN(Cc2ccc(Cl)c(Cl)c2)CCO1 [Example 37] ?
Solution: 3
